Provenance of the data: patent US5338548A

- experiment.notes: Stability of Physostigmine Free Base in Aqueous Solution (and in ethanol, isopropyl myristate), HPLC
- Type: physicochemical
- condition.info: ethanol solution, after 7 days; read-out: physostigmine free base lost in ethanol solution
measure: degraded at 168 h (%)
Write the number in % without appending the unit.

Suppose we examine the compound CNC(=O)Oc1ccc2c(c1)[C@]1(C)CCN(C)[C@@H]1N2C [Physostigmine free base] ; what degraded at 168 h value has been reported?
5
